System: T1, human PAR-2 (human, UniProt P55085 26-397)
T1 sequence: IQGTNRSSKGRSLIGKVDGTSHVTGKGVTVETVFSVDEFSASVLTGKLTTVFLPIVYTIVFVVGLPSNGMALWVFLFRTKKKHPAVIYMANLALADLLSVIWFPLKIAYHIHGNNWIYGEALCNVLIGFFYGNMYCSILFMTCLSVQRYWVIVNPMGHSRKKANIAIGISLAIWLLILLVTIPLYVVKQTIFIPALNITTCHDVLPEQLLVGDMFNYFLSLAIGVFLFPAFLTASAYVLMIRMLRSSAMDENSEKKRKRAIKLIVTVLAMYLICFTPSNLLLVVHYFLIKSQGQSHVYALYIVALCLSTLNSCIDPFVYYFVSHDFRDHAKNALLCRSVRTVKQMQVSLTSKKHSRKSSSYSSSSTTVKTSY
Method summary: cell-based or functional assay
Recorded endpoint: PAR-2 calcium flux cell assay IC50 (nM)
State just the number; it will be interpreted in nM.

Worked examples, 4 binders total:
{"Binder": "309-6e (antibody, human IgG4 S228P, kappa, V domains shown) VH: EVQLVESGGGLVQPGGSLRLSCAASGFSLNSYGVIWVRQAPGKGLEWVSVIWGNGNTYYNDSVKGRFTISRDNSKNTLYLQMNSLRAEDTAVYYCARWRGYKDYPFDYWGQGTLVTVSS VL: EIVLTQSPATLSLSPGERATLSCKASQNIYKYLDWYQQKPGQAPRLLIYNTNSLHTGIPARFSGSGSGRDFTLTISSLEPEDFAVYYCLQHNSGWTFGGGTKVEIKR", "PAR-2 calcium flux cell assay IC50 / nM": 12.7}
{"Binder": "309-12e (antibody, human IgG4 S228P, kappa, V domains shown) VH: QVQLQQWGAGLLKPSETLSLTCAVYGFSLNSYGVIWIRQPPGKGLEWIGVIWGNGNTYYNPSLKSRVTISVDTSKNQFSLKLSSVTAADTAVYYCARWRGYKDYPFDYWGQGTLVTVSS VL: EIVLTQSPATLSLSPGERATLSCKASQNIYKYLDWYQQKPGQAPRLLIYNTNSLHTGIPARFSGSGSGRDFTLTISSLEPEDFAVYYCLQHNSGWTFGGGTKVEIKR", "PAR-2 calcium flux cell assay IC50 / nM": 8.3}
{"Binder": "Ab309 (antibody, human IgG4, V domains shown) VH: QVQLKESGPGLVQPSQTLSLTCTVSGFSLNSYGVIWARQPPGKGLDWMGVIWGNGNTYYNSDLKSRLSISRDTSKSQVFLKMNNLQAEDTALYFCARWRGYKDYPFDYWGQGVMVTVSS VL: DIQMTQSPSFLSASVGDRVTFNCKASQNIYKYLDWYQQKLGEAPKLLIYNTNSLHTGIPSRFSGSGFGTDFTLTISSLQPEDVATYFCLQHNSGWTFGGGTKLELR", "PAR-2 calcium flux cell assay IC50 / nM": 8.6}
{"Binder": "309-11e (antibody, human IgG4 S228P, kappa, V domains shown) VH: QVQLQESGPGLVKPSETLSLTCTVSGFSLNSYGVIWIRQPPGKGLEWIGVIWGNGNTYYNPSLKSRVTISVDTSKNQFSLKLSSVTAADTAVYYCARWRGYKDYPFDYWGQGTLVTVSS VL: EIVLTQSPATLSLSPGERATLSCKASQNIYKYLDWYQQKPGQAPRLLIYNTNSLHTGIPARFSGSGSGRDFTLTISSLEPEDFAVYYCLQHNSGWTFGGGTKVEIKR", "PAR-2 calcium flux cell assay IC50 / nM": 22.8}

Now look at this one.
Query :: What value of PAR-2 calcium flux cell assay IC50 has been recorded for this entry: 309-4e (antibody, human IgG4 S228P, kappa, V domains shown) VH: QVQLVQSGAEVKKPGSSVKVSCKASGFSLNSYGVIWVRQAPGQGLEWMGVIWGNGNTYYNQKFQGRVTITADESTSTAYMELSSLRSEDTAVYYCARWRGYKDYPFDYWGQGTLVTVSS VL: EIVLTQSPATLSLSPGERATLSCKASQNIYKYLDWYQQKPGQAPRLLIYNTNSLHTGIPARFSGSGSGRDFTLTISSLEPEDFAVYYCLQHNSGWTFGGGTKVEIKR
Result :: 7.6
